Numbers sourced from ChEMBL document CHEMBL3507680.

PROTOCOL: Human HepG2 cell viability assay in 384 well format
Assay type: toxicity, cell-based
Design: dose 125 nL, time 70.5 hour; concentration not given beside the values
CONDITION LABEL: HepG2 cells, read-out: Inhibition
# Lookup of reported cytotoxicity at 70.5 h keyed by entry

[
  {
    "MOLECULE": "COc1cc(N2CCC3(CC2)CN(CCO)c2ccccc23)ncn1",
    "cytotoxicity at 70.5 h [%]": -0.577
  },
  {
    "MOLECULE": "O=C(c1cc(C2CCCCN2C(=O)C2CCC2)n[nH]1)N1CCOCC1 (stereo unspecified)",
    "cytotoxicity at 70.5 h [%]": 18.8
  },
  {
    "MOLECULE": "O=C1CNc2ncnc(Nc3cnn(Cc4ccc(F)cc4)c3)c2N1",
    "cytotoxicity at 70.5 h [%]": -12.2
  },
  {
    "MOLECULE": "CNC(=O)CN1CCOCC2(C1)CN(C(=O)CC(C)C)CCO2 (stereo unspecified)",
    "cytotoxicity at 70.5 h [%]": -4.88
  },
  {
    "MOLECULE": "COCCN1CCN(Cc2csc(-c3cnn(C)c3)n2)CC1",
    "cytotoxicity at 70.5 h [%]": -7.26
  },
  {
    "MOLECULE": "Cc1ccc(C2CSCCN2C(=O)NCc2cccnc2)cc1 (stereo unspecified)",
    "cytotoxicity at 70.5 h [%]": -10.1
  },
  {
    "MOLECULE": "Cc1nc(C)n(CCNC(=O)C(C)n2ccnc2C(C)C)n1 (stereo unspecified)",
    "cytotoxicity at 70.5 h [%]": -0.492
  },
  {
    "MOLECULE": "Cc1ccc(Cl)c(C(C(=O)O)N(C)Cc2cnn(C)c2)c1 (stereo unspecified)",
    "cytotoxicity at 70.5 h [%]": 5.66
  },
  {
    "MOLECULE": "Cc1c(C(=O)NC(C)C)nnn1-c1cccc(C(F)(F)F)c1",
    "cytotoxicity at 70.5 h [%]": -4.53
  },
  {
    "MOLECULE": "Cc1ccc(C(O)CNC(=O)NCc2c(C)cc(C)[nH]c2=O)cc1 (stereo unspecified)",
    "cytotoxicity at 70.5 h [%]": -9.83
  },
  {
    "MOLECULE": "Cc1ccc(OCC(O)COC2CCOCC2)c(Br)c1 (stereo unspecified)",
    "cytotoxicity at 70.5 h [%]": -10.6
  },
  {
    "MOLECULE": "O=C(NCc1ccco1)[C@H]1C[C@@H]2CCN(c3ncccn3)C[C@H]2O1",
    "cytotoxicity at 70.5 h [%]": -5.11
  },
  {
    "MOLECULE": "Cc1cnn(C2CCCN(C(=O)c3c(C)oc(C)c3C)C2)c1 (stereo unspecified)",
    "cytotoxicity at 70.5 h [%]": -0.501
  },
  {
    "MOLECULE": "Cc1cccc(OCCCNC(=O)NC(C)c2nncn2C)c1 (stereo unspecified)",
    "cytotoxicity at 70.5 h [%]": -6.42
  },
  {
    "MOLECULE": "CCN(CCc1nc2cc(C)ccc2[nH]1)C(=O)[C@@H](N)COC",
    "cytotoxicity at 70.5 h [%]": 10
  },
  {
    "MOLECULE": "Cc1ncn(CCNC(=O)Nc2ccc(F)c(Cl)c2)c(=O)c1C",
    "cytotoxicity at 70.5 h [%]": -3.86
  },
  {
    "MOLECULE": "CN1CCC(Oc2ccc(NC(=O)c3ccccc3Br)cc2)CC1",
    "cytotoxicity at 70.5 h [%]": -7.15
  },
  {
    "MOLECULE": "CCn1cc(NS(=O)(=O)c2ccc(Br)s2)c(C(=O)NCC(C)C)n1",
    "cytotoxicity at 70.5 h [%]": -0.598
  },
  {
    "MOLECULE": "CCCC(O)CN1CC(C)(C)CN(C(=O)CCc2ccccc2)CC1=O (stereo unspecified)",
    "cytotoxicity at 70.5 h [%]": 19.5
  },
  {
    "MOLECULE": "CCC(C)N1CCc2nc(N3CCCC3)nc(NC(C)C)c2C1 (stereo unspecified)",
    "cytotoxicity at 70.5 h [%]": -7.15
  },
  {
    "MOLECULE": "c1cc(CN2CCc3cncnc3C2)c2c(c1)OCCO2",
    "cytotoxicity at 70.5 h [%]": -6.07
  },
  {
    "MOLECULE": "O=C(NCC1CC1)C1CN(C(=O)NC2CCCC2)Cc2cncn2C1 (stereo unspecified)",
    "cytotoxicity at 70.5 h [%]": -6.07
  },
  {
    "MOLECULE": "Cc1nn(C)cc1C1=NS(=O)(=O)N(C)C(C(=O)Nc2ccc(Br)cc2)=C1",
    "cytotoxicity at 70.5 h [%]": 0.0552
  },
  {
    "MOLECULE": "CS(=O)(=O)c1ccc(OCCCN2CCc3cncnc3C2)cc1",
    "cytotoxicity at 70.5 h [%]": 23.6
  },
  {
    "MOLECULE": "Cc1cc(C(=O)N2CC[C@H](OCC3CC3)[C@@H]2Cc2cccnc2)no1",
    "cytotoxicity at 70.5 h [%]": -4.43
  },
  {
    "MOLECULE": "CN1CCCC(c2cccc(CCC(N)=O)n2)C1 (stereo unspecified)",
    "cytotoxicity at 70.5 h [%]": -3.92
  },
  {
    "MOLECULE": "O=C(O)CC(NC(=O)c1cc(Br)c[nH]1)c1ccccc1 (stereo unspecified)",
    "cytotoxicity at 70.5 h [%]": -7.36
  },
  {
    "MOLECULE": "Cc1nn(C)c2nc(N3CCC(C(O)c4nccn4C)CC3)sc12 (stereo unspecified)",
    "cytotoxicity at 70.5 h [%]": -11.6
  },
  {
    "MOLECULE": "CCOC(=O)c1nc(CC(=O)Nc2ccc3cc[nH]c3c2)no1",
    "cytotoxicity at 70.5 h [%]": -9.72
  },
  {
    "MOLECULE": "COc1ccc(C(C(=O)O)N(C)CCN2CCOCC2)c(C)c1 (stereo unspecified)",
    "cytotoxicity at 70.5 h [%]": -11.3
  },
  {
    "MOLECULE": "CN(C)C(C(=O)N1CCN(S(N)(=O)=O)CC1)c1ccccc1F (stereo unspecified)",
    "cytotoxicity at 70.5 h [%]": -3.36
  },
  {
    "MOLECULE": "COc1ccc2c3c1CN(C(=O)N(C)C)CC3=CC(C)(C)CO2",
    "cytotoxicity at 70.5 h [%]": -6.85
  },
  {
    "MOLECULE": "O=C1NCCO[C@H]2CN(C(=O)CCc3ccc(Cl)cc3)CC[C@@H]12",
    "cytotoxicity at 70.5 h [%]": -17.3
  },
  {
    "MOLECULE": "Cn1c(-c2cc3n(n2)CCCN(CC(=O)O)C3)nc2ccccc21",
    "cytotoxicity at 70.5 h [%]": 22.8
  },
  {
    "MOLECULE": "CC(=O)N1CCCC1c1cccc(Cc2ccccc2Cl)n1 (stereo unspecified)",
    "cytotoxicity at 70.5 h [%]": 0.0226
  },
  {
    "MOLECULE": "CCN(C)c1ncnc2c1CCN(C(=O)c1ccsc1)CC2",
    "cytotoxicity at 70.5 h [%]": -0.977
  },
  {
    "MOLECULE": "CCN1CCN(S(=O)(=O)c2c[nH]c(C(C)C)n2)c2ccccc21",
    "cytotoxicity at 70.5 h [%]": -5.4
  },
  {
    "MOLECULE": "c1ccc(CN2CCOC[C@H]2c2nc(-c3ccncc3)c[nH]2)nc1",
    "cytotoxicity at 70.5 h [%]": 1.25
  },
  {
    "MOLECULE": "CC(=O)N1CCC(Cc2cccc(-c3ccnn3C)n2)CC1",
    "cytotoxicity at 70.5 h [%]": -8.71
  },
  {
    "MOLECULE": "Cc1cc(CN2C[C@@H](C)[C@@]3(CCN(CC(=O)N(C)C)C3=O)C2)oc1C",
    "cytotoxicity at 70.5 h [%]": -4.41
  },
  {
    "MOLECULE": "CCO[C@H]1CN(C(=O)c2ccnnc2)[C@@H]2COC[C@H]12",
    "cytotoxicity at 70.5 h [%]": -10.7
  },
  {
    "MOLECULE": "CC(C)n1[nH]c(=O)c2c1NC(=O)CSC2c1ccc(OCC(N)=O)cc1 (stereo unspecified)",
    "cytotoxicity at 70.5 h [%]": -11.1
  },
  {
    "MOLECULE": "Cc1[nH]/c(=N\\C(=O)c2csc(NCC(C)C)n2)sc1C",
    "cytotoxicity at 70.5 h [%]": 5.69
  },
  {
    "MOLECULE": "O=C1COC2(CCN(Cc3ccoc3)CC2)CN1c1ccsc1",
    "cytotoxicity at 70.5 h [%]": -15.9
  },
  {
    "MOLECULE": "CCOCc1ncn2c1CN(S(=O)(=O)c1ccc(F)cc1)CC2",
    "cytotoxicity at 70.5 h [%]": 9.27
  },
  {
    "MOLECULE": "O=S(=O)(Cc1ccccc1CN1CC[C@H](CO)[C@H](O)C1)c1ccccc1",
    "cytotoxicity at 70.5 h [%]": -7.73
  }
]
